SUBJECT OF TEST: Acetylcholinesterase (Homo sapiens)
pIC50: −log10 of the molar value.
Decide using pIC50: a value greater than or equal to 7 is 1, a smaller one is -1.

Ask | Please indicate if the recorded pIC50 for COc1ccc2c(c1OC)C(=O)CC2CCC1CCN(Cc2ccccc2)CC1 (stereo not drawn) meets or exceeds 7.
Reply | 1

Ask | Here is the next molecule: c1ccc(NCCCCCCCCCCCCNc2c3c(nc4ccccc24)CCCC3)cc1
Reply | -1

Ask | Here is the next molecule: CCCNC(=O)Oc1ccc2c(c1)C1CCN(CC)C1C2 (stereo not drawn)
Reply | -1

Ask | Here is the next molecule: Nc1c2c(nc3ccccc13)-c1ccccc1C2
Reply | -1

Ask | Here is the next molecule: Cc1cc(C2(c3cc(C)c(O)c(C)c3)CCCCC2)cc(C)c1O
Reply | -1

Ask | Here is the next molecule: CN(CCCNc1ccc(-c2ccccc2)nn1)Cc1ccccc1
Reply | -1

Ask | Here is the next molecule: Nc1cccc2c1C(=O)N(CCC1CCN(Cc3ccccc3)CC1)C2=O
Reply | 1

Ask | Here is the next molecule: O=C(/C=C/c1c[nH]c2ccccc12)NCCCCCCNc1c2c(nc3cc(Cl)ccc13)CCCC2
Reply | 1

Ask | Here is the next molecule: O=C(OC1Cc2c(O)cc(O)cc2OC1c1ccc(O)c(O)c1)c1cc(O)c(O)c(O)c1 (stereo not drawn)
Reply | -1

Ask | Here is the next molecule: NCCCCCCCCCCCCNc1c2c(nc3ccccc13)CCCC2
Reply | -1

Ask | Here is the next molecule: CN(C)CCCCCCCCNc1c2c(nc3ccccc13)CCCC2
Reply | 1

Ask | Here is the next molecule: O=C1c2cccnc2C(=O)N1CCC1CCN(Cc2ccccc2)CC1
Reply | 1

Ask | Here is the next molecule: CCCCCCNC(=O)Oc1cccc(CN(C)CCCOc2ccc3c(=O)ccoc3c2)c1
Reply | 1

Ask | Here is the next molecule: CN(C)C(=O)Nc1cccc2n1cc(-c1ccc(OC(=O)N(C)C)cc1)[n+]2C
Reply | -1

Ask | Here is the next molecule: CN(C)C(=O)Oc1ccc(-c2cn3c(Cl)cccc3[n+]2C)cc1
Reply | -1

Ask | Here is the next molecule: CCN1CCCCc2ccc(C(=O)CCC3CCN(Cc4ccccc4)CC3)cc21
Reply | -1

Ask | Here is the next molecule: CN(CCOCCNC(=S)Nc1ccc(OC(F)(F)F)cc1)Cc1ccccc1
Reply | -1

Ask | Here is the next molecule: CC(C)c1cc(-c2ccccc2)nnc1NCCC1CCN(Cc2ccccc2)CC1
Reply | -1

Ask | Here is the next molecule: c1ccc(-c2ccc(NCCCCN3CCc4ccccc4C3)nn2)cc1
Reply | -1

Ask | Here is the next molecule: c1ccc(CN2CCC(CNc3ccc(-c4ccccc4)nn3)CC2)cc1
Reply | -1

###

Consider the following pIC50 values measured on Acetylcholinesterase (Homo sapiens, UniProt P22303).
Sequence (P22303 whole entry): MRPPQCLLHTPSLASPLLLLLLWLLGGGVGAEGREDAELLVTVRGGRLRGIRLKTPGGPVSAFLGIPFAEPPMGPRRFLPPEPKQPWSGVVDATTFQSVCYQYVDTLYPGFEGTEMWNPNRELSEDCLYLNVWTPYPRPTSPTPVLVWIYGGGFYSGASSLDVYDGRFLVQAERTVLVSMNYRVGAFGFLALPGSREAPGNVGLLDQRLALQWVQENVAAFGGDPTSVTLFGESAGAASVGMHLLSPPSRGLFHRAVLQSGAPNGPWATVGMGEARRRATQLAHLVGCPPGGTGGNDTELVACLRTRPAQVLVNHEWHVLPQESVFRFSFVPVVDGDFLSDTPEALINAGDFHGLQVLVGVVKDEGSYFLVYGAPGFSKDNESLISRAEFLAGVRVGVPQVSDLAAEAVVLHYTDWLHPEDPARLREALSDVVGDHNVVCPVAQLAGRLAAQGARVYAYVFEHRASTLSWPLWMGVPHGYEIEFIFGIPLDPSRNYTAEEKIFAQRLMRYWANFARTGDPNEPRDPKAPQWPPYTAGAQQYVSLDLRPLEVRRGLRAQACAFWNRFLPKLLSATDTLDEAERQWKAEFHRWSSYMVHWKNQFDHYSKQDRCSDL
Worth noting: pIC50 values are minus log10 of concentrations stated in mol/L.

Ask | For the molecule O=C(CCC1CCN(Cc2ccc(Cl)cc2)CC1)c1ccc2c(c1)CCN2 , what pIC50 is on record?
Reply | 5.20

Ask | Here is the next molecule: CN(C)C(=O)Oc1ccc(-c2cn3ccccc3[n+]2C)cc1
Reply | 4.77

Ask | Here is the next molecule: CN(C)C(=O)Oc1cccc(-c2cn3c(Cl)cccc3[n+]2C)c1
Reply | 4.90

Ask | Here is the next molecule: CN(CCOCCNC(=S)NC(=O)c1ccc2c(c1)C(=O)c1ccccc1-2)Cc1ccccc1
Reply | 7.52

Ask | Here is the next molecule: CCCc1cc(N2CCC=N2)ccc1C(=O)ON=C(N)c1ccc(C(F)(F)F)cc1
Reply | 4.89

Ask | Here is the next molecule: CCCCCCNC(=O)Oc1cccc(CN(C)CCCCOc2ccc3c(=O)c4ccccc4oc3c2)c1
Reply | 7.00

Ask | Here is the next molecule: COc1cc2c(cc1OC)CC(CC1CCN(c3ccccc3)CC1)=C2
Reply | 5.36

Ask | Here is the next molecule: O=C1c2ccc([N+](=O)[O-])cc2C(=O)N1CCC1CCN(Cc2ccccc2)CC1
Reply | 7.90

Ask | Here is the next molecule: COc1ccc2c(c1)C(=O)N(CCC1CCN(Cc3ccccc3)CC1)C2=O
Reply | 8.10

Ask | Here is the next molecule: O=C(CCC1CCN(Cc2ccccc2)CC1)c1ccc2c(c1)NCC2
Reply | 6.95
